The origin of these recorded values is patent US10988440B2.

In this section, each of the compounds is paired with its reported IC50.
- target.entity: FTO (Homo sapiens, UniProt Q9C0B1)
- Sequence (Q9C0B1 whole entry): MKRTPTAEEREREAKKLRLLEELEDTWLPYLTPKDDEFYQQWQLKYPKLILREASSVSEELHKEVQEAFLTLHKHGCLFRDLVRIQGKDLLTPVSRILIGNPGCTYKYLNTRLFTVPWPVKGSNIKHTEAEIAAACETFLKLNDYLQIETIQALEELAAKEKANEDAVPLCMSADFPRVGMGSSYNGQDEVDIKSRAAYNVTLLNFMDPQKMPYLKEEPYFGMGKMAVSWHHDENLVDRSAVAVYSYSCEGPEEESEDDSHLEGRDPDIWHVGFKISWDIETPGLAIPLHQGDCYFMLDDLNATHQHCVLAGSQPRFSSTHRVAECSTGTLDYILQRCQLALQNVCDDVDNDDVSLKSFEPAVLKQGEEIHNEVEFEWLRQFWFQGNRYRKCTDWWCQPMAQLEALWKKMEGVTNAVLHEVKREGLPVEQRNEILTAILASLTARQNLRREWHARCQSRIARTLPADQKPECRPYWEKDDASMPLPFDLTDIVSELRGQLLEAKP
- procedure.details: demethylation reaction catalyzed by FTO (enzymatic inhibition, HPLC-MS/MS of N6-mA and A)
- Assay type: biochemical
- test.parameters: exemplary IC50 data of representative compounds; read-out: Enzymatic inhibition (IC50)

compound | recorded.result
N#C/C(C(=O)NCc1ccncn1)=C(/O)c1cc(O)c(O)c([N+](=O)[O-])c1 | < 1 µM
CCN(CC)C(=O)C(C#N)=C(NC)c1cc(O)c(O)c([N+](=O)[O-])c1 [Compound 347M] | ~1 µM
Cc1ccc(/C(C#N)=C/c2cc(O)c(O)c([N+](=O)[O-])c2)nc1 | < 1 µM
N#C/C(=C\c1cc(O)c(O)c([N+](=O)[O-])c1)C(=O)NCc1ccccc1 | > 1 µM
N#C/C(=C\c1cc(O)c(O)c([N+](=O)[O-])c1)C(=O)N1CCOCC1 | > 1 µM

What value of IC50 on FTO (Homo sapiens, UniProt Q9C0B1) does CCN(CC)C(=O)/C(C#N)=C(\N)c1cc(O)c(O)c([N+](=O)[O-])c1 [Compound 347N] have? < 1 µM

What value of IC50 on FTO (Homo sapiens, UniProt Q9C0B1) does N#C/C(=C\c1cc(O)c(O)c([N+](=O)[O-])c1)C(=O)c1nc2ccccc2[nH]1 have? > 1 µM

What value of IC50 on FTO (Homo sapiens, UniProt Q9C0B1) does N#C/C(=C\c1cc(O)c(O)c([N+](=O)[O-])c1)C(=O)Nc1ccccc1 have? ~1 µM

----------
- procedure.details: Rat liver microsome stability assay
- Type: in vitro ADME
- test.parameters: liver microsomes, pH 7.4; rat liver microsome 1 mg/ml, test compound 2 μM, NADPH 1 mM, 37° C.; read-out: Rat Liver Microsome T½
measurement.name: half-life at 2 μM (min)
Output spec: scalar in min, unitless text.

What value of half-life at 2 μM has been recorded for this entry: CCN(CC)C(=O)C(C#N)=C(NC)c1cc(O)c(O)c([N+](=O)[O-])c1 [Compound 347M] 56.8

----------
In this section, each of the compounds is paired with its reported inhibition at 0.05 µM.
- target.entity: COMT enzyme (Homo sapiens, UniProt P21964)
- Construct: COMT (μM); other: at 200 nM; other: at 50 nM; The reaction system contains 1U COMT enzyme, test article, 4 μM Esculetin, 0.6 mM AdoMet, 50 mM K3PO4, and 10 mM MgCl2
- Sequence (P21964 whole entry): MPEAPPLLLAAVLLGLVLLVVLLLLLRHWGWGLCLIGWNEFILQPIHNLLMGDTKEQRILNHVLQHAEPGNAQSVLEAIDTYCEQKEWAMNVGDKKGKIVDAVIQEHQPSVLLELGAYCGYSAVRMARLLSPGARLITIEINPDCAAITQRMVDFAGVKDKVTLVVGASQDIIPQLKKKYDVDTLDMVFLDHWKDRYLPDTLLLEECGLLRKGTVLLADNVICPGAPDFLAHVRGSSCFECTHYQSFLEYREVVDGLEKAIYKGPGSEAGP
- procedure.details: COMT inhibition assay (reaction kinetic model, esculetin fluorescence)
- Format: biochemical
- test.parameters: read-out: COMT inhibition at 50 nM
Output spec: scalar in %, unitless text.

Known results for compounds:
structure.smiles.string | inhibition at 0.05 µM [%]
N#C/C(=C\c1cc(O)c(O)c([N+](=O)[O-])c1)c1ccncn1 | 36
N#C/C(=C(/O)c1cc(O)c(O)c([N+](=O)[O-])c1)c1nccs1 | 9

In the following, a different compound is considered.
What value of inhibition at 0.05 µM has been recorded for this entry: N#C/C(=C\c1cc(O)c(O)c([N+](=O)[O-])c1)C(=O)Nc1nccs1 25

----------
In this section, each of the compounds is paired with its reported inhibition at 0.2 µM.
- target.entity: COMT enzyme (Homo sapiens, UniProt P21964)
- Construct: COMT (μM); other: at 200 nM; other: at 50 nM; The reaction system contains 1U COMT enzyme, test article, 4 μM Esculetin, 0.6 mM AdoMet, 50 mM K3PO4, and 10 mM MgCl2
- procedure.details: COMT inhibition assay (reaction kinetic model, esculetin fluorescence)
- Format: biochemical
- test.parameters: read-out: COMT inhibition at 200 nM

compound | inhibition at 0.2 µM
N#C/C(C(=O)N1CCCCC1)=C(/N)c1cc(O)c(O)c([N+](=O)[O-])c1 [Compound 661N] | 64%
N#C/C(=C(/O)c1cc(O)c(O)c([N+](=O)[O-])c1)c1cnc(C(=O)O)cn1 [Compound 697] | 33%
N#C/C(=C\c1cc(O)c(O)c([N+](=O)[O-])c1)C(=O)Nc1nccs1 [Compound 331] | 54%

What value of inhibition at 0.2 µM has been recorded for this entry: N#C/C(=C\c1cc(O)c(O)c([N+](=O)[O-])c1)c1nccs1 [Compound 390] 36%

----------
- procedure.details: Rat liver microsome stability assay
- Assay type: in vitro ADME
- test.parameters: liver microsomes, pH 7.4; rat liver microsome 1 mg/ml, test compound 2 μM, NADPH 1 mM, 37° C.; read-out: Rat Liver Microsome CLint (μL/min/mg protein)
measurement.name: microsomal CLint at 2 μM (µL/min/mg)
Output spec: scalar in µL/min/mg, unitless text.

What value of microsomal CLint at 2 μM has been recorded for this entry: CCN(CC)C(=O)C(C#N)=C(NC)c1cc(O)c(O)c([N+](=O)[O-])c1 [Compound 347M] 12.2

----------
- procedure.details: Rat liver microsome stability assay
- Assay type: in vitro ADME
- test.parameters: liver microsomes, pH 7.4; rat liver microsome 1 mg/ml, test compound 2 μM, NADPH 1 mM, 37° C.; read-out: Rat Liver Microsome CLint (μL/min/mg protein)
In this section, each of the molecules is paired with its reported log10 of microsomal CLint at 1 h, 2 µM.
Values are log10 of microsomal CLint at 1 h, 2 µM in µL/min/mg.

molecule | log10 of microsomal CLint at 1 h, 2 µM
CCN(CC)C(=O)/C(C#N)=C/c1cc(O)c(O)c([N+](=O)[O-])c1 [Entacapone, entacapone, reference compound] | 1.25

In the following, a different molecule is considered.
What value of log10 of microsomal CLint at 1 h, 2 µM has been recorded for this entry: N#CC(=Cc1cc(O)c(O)c([N+](=O)[O-])c1)c1ccccn1 (stereo in doubt) 2.49

----------
- target.entity: FTO (Homo sapiens, UniProt Q9C0B1)
- procedure.details: demethylation reaction catalyzed by FTO (enzymatic inhibition, HPLC-MS/MS of N6-mA and A)
- Format: biochemical
- test.parameters: selectivity table; read-out: FTO
In this section, each of the molecules is paired with its reported pIC50.
Keep in mind that pIC50 stands for -log10 of concentration in molar terms.

Known results for molecules:
molecule | pIC50
N#C/C(=C\c1cc(O)c(O)c([N+](=O)[O-])c1)c1ccncn1 | 6.30
N#C/C(=C\c1cc(O)c(O)c([N+](=O)[O-])c1)c1cnc(C(=O)O)cn1 | 6.52

What value of pIC50 has been recorded for this entry: N#C/C(=C\c1cc(O)c(O)c([N+](=O)[O-])c1)c1cnccn1 6.60

What value of pIC50 has been recorded for this entry: CCN(CC)C(=O)/C(C#N)=C(\N)c1cc(O)c(O)c([N+](=O)[O-])c1 [Compound 347N] 6.30

What value of pIC50 has been recorded for this entry: N#CC(=Cc1cc(O)c(O)c([N+](=O)[O-])c1)c1ccccn1 (stereo in doubt) 6.00

What value of pIC50 has been recorded for this entry: N#C/C(=C(/O)c1cc(O)c(O)c([N+](=O)[O-])c1)c1cnc(C(=O)O)cn1 6.12

What value of pIC50 has been recorded for this entry: N#C/C(C(=O)N1CCC1)=C(/O)c1cc(O)c(O)c([N+](=O)[O-])c1 6.12

----------
- target.entity: FTO (Homo sapiens)
- procedure.details: demethylation reaction catalyzed by FTO (enzymatic inhibition, HPLC-MS/MS of N6-mA and A)
- Type: biochemical
- test.parameters: exemplary IC50 data of representative compounds; read-out: Enzymatic inhibition (IC50)
pIC50: −log10 of the molar value.
In this section, each of the compounds is paired with its reported pIC50.

Known results for compounds:
compound | pIC50
N#C/C(=C\c1cc(O)c(O)c([N+](=O)[O-])c1)C(=O)c1cc(O)no1 | < 6.00
N#C/C(=C(/O)c1cc(O)c(O)c([N+](=O)[O-])c1)c1cnc(C(=O)O)cn1 | > 6.00
N#C/C(=C\c1cc(O)c(O)c([N+](=O)[O-])c1)c1c[n+]([O-])ccn1 | > 6.00
N#C/C(=C\c1cc(O)c(O)c([N+](=O)[O-])c1)c1cnc(C(=O)O)cn1 | > 6.00
N#C/C(C(=O)N1CCCCC1)=C(/N)c1cc(O)c(O)c([N+](=O)[O-])c1 [Compound 661N] | > 6.00
N#C/C(C(=O)N1CCC1)=C(/N)c1cc(O)c(O)c([N+](=O)[O-])c1 [Compound 701N] | < 6.00
N#C/C(=C(/O)c1cc(O)c(O)c([N+](=O)[O-])c1)c1nccs1 | ~6.00
N#C/C(C(=O)c1cscn1)=C(/N)c1cc(O)c(O)c([N+](=O)[O-])c1 [Compound 711N] | < 6.00

What value of pIC50 has been recorded for this entry: N#C/C(=C(/O)c1cc(O)c(O)c([N+](=O)[O-])c1)c1ccccn1 > 6.00

What value of pIC50 has been recorded for this entry: N#C/C(C(=O)Nc1cnccn1)=C(/O)c1cc(O)c(O)c([N+](=O)[O-])c1 > 6.00

What value of pIC50 has been recorded for this entry: N#C/C(=C(/O)c1cc(O)c(O)c([N+](=O)[O-])c1)c1ccncn1 > 6.00

What value of pIC50 has been recorded for this entry: N#C/C(=C\c1cc(O)c(O)c([N+](=O)[O-])c1)c1ncns1 > 6.00

What value of pIC50 has been recorded for this entry: N#C/C(C(=O)Nc1nccs1)=C(/O)c1cc(O)c(O)c([N+](=O)[O-])c1 > 6.00

What value of pIC50 has been recorded for this entry: N#C/C(=C\c1cc(O)c(O)c([N+](=O)[O-])c1)C(=O)N[C@@H](CO)C(=O)O ~6.00

What value of pIC50 has been recorded for this entry: N#C/C(C(=O)N1CCCCC1)=C(/O)c1cc(O)c(O)c([N+](=O)[O-])c1 ~6.00

What value of pIC50 has been recorded for this entry: N#C/C(C(=O)N1CCCOC1)=C(/O)c1cc(O)c(O)c([N+](=O)[O-])c1 > 6.00

What value of pIC50 has been recorded for this entry: N#C/C(=C\c1cc(O)c(O)c([N+](=O)[O-])c1)C(=O)N1CCCC1 < 6.00
